B1: PPFIA4 (parent)
chain: YAGNLHESGVHGALLALDENFDHN

variants of: B1; experiment: protein stability index of a GFP-peptide fusion (GPS, HEK-293T) (PSI 1-6); higher = more stable; settings: c terminus: a fixed tail appended;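 also: lentivirally expressed fusions sorted by FACS into six bins by GFP to DsRed ratio, PSI derived from sequencing read proportions per bin multiplied by bin number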
Parameter threshold = 2. Response is true when protein stability index meets or exceeds it, else false.

Recorded results for 5 variants are shown here.
L5A; true
L14Y; true
H11V; false
H11D; true
F21C; true

Q) Has S8K a recorded protein stability index greater than or equal to 2?
A) true

Q) Has H11E a recorded protein stability index greater than or equal to 2?
A) true

Q) Has H11P a recorded protein stability index greater than or equal to 2?
A) true

Q) Has L17C a recorded protein stability index greater than or equal to 2?
A) true

Q) Has N4Q a recorded protein stability index greater than or equal to 2?
A) true

Q) Has H23E a recorded protein stability index greater than or equal to 2?
A) true

Q) Has E19M a recorded protein stability index greater than or equal to 2?
A) false
